# Method Summary: Tmax in mouse at 10 mg/kg, po
# Type: ADME, organism-based
# Set-up: dose 10 mg/kg, route oral
# Experimental Setup: in vivo
Experimental Endpoint: Tmax (h)
Numbers only, in h.

I am curious: what Tmax value has been reported for CC(C)C[C@H](NCCN)c1cccc(F)c1N1CCN(C(=O)[C@@H](Cc2ccc(Cl)cc2Cl)N2CCCC2=O)CC1 ?
2

----------
# Method Summary: Plasma clearance in mouse at 5 mg/kg, iv
# Format: ADME, organism-based
# Parameters: dose 5 mg/kg, route intravenous
Experimental Endpoint: clearance (mL/min/kg)
Numbers only, in mL/min/kg.

I am curious: what clearance value has been reported for CC(C)C[C@H](NCCN)c1cccc(F)c1N1CCN(C(=O)[C@@H](Cc2ccc(Cl)cc2Cl)N2CCCC2=O)CC1 ?
15
